ASSAY INFO: Solubility in PBS
Format: physicochemical
What Solubility was measured for each of the following?

Requested field: Solubility. Item: CC(=O)N1CCC[C@]12CC=CCCCC1(CCCC=CCCCCCC[C@@](C)(C(=O)N[C@@H](Cc3ccccc3)C(=O)N[C@@H](Cc3csc4ccccc34)C(=O)N[C@@H](CCC(N)=O)C(N)=O)NC(=O)[C@H](CCCNC(N)=O)NC(=O)[C@H](Cc3ccccc3)NC(=O)[C@H](C)NC(=O)[C@H](C)NC(=O)[C@H](CCC(=O)O)NC(=O)[C@H](CC(=O)O)NC1=O)NC(=O)[C@H](CC(C)C)NC(=O)[C@H](CC(=O)O)NC2=O (stereo partly drawn) [I-621] 50 µM

Requested field: Solubility. Item: COc1ccccc1C[C@H](NC(=O)[C@]1(C)CCCCCCC=CCCCC2(CCCC=CC[C@]3(CCCN3C(C)=O)C(=O)N[C@@H](CC(=O)O)C(=O)N[C@@H](C)C(=O)N2)C(=O)N[C@@H](CC(=O)O)C(=O)N[C@@H](CCC(=O)O)C(=O)N[C@@H](C)C(=O)N[C@@H](C)C(=O)N[C@@H](Cc2ccccc2)C(=O)N[C@@H](CC(N)=O)C(=O)N1)C(=O)N[C@@H](Cc1csc2ccccc12)C(=O)N[C@@H](Cc1c[nH]cn1)C(N)=O (stereo partly drawn) [I-510] 43 µM

Requested field: Solubility. Item: CC(=O)N1CCC[C@]12CC=CCCCC1(CCCC=CCCCOC(=O)N3CC[C@@](C(=O)N[C@@H](Cc4ccsc4)C(=O)N[C@@H](Cc4csc5ccccc45)C(=O)N[C@@H](CO)C(N)=O)(C3)NC(=O)[C@H](CC(C)C)NC(=O)[C@H](Cc3ccccc3)NC(=O)[C@H](C)NC(=O)[C@H](C)NC(=O)[C@H](CN(CC(=O)O)CC(F)(F)F)NC(=O)[C@H](CC(=O)O)NC1=O)NC(=O)[C@H](CC(C)(C)C)NC(=O)[C@H](CC(=O)O)NC2=O (stereo partly drawn) [I-960] 13 µM

###

ASSAY INFO: Solubility in PBS
Format: physicochemical
MEASURED PROPERTY: Solubility (µM)
Expressed in µM, but write only the number.

Requested field: Solubility. Item: CC(=O)N1CCC[C@]12CC=CCCCC1(CCCC=CCCCOC(=O)N3CC[C@@](C(=O)N[C@@H](Cc4ccsc4)C(=O)N[C@@H](Cc4csc5ccccc45)C(=O)N[C@@H](CO)C(N)=O)(C3)NC(=O)[C@H](CC(C)C)NC(=O)[C@H](Cc3ccccc3)NC(=O)[C@H](C)NC(=O)[C@H](C)NC(=O)[C@H](CN(CC(=O)O)CC(F)(F)F)NC(=O)[C@H](CC(=O)O)NC1=O)NC(=O)[C@H](CC(C)(C)C)NC(=O)[C@H](CC(=O)O)NC2=O (some centres unmarked) [I-961] 10

Requested field: Solubility. Item: CC(=O)N1CCC[C@]12CC=CCCCC1(CCCC=CCCCCCC[C@@](C)(C(=O)N[C@@H](Cc3ccccc3)C(=O)N[C@@H](Cc3csc4ccccc34)C(=O)N[C@@H](CCO)C(N)=O)NC(=O)[C@H](CCC(N)=O)NC(=O)[C@H](Cc3ccccc3)NC(=O)[C@H](C)NC(=O)[C@H](C)NC(=O)[C@H](CCC(=O)O)NC(=O)[C@H](CC(=O)O)NC1=O)NC(=O)[C@H](C)NC(=O)[C@H](CC(=O)O)NC2=O (some centres unmarked) [I-491] 39

Requested field: Solubility. Item: CC(=O)N1CCC[C@]12CC=CCCCC1(CCCC=CCCCCCC[C@@](C)(C(=O)N[C@@H](Cc3ccsc3)C(=O)N[C@@H](Cc3csc4ccccc34)C(=O)N[C@@H](CCC(N)=O)C(N)=O)NC(=O)[C@H](CC(N)=O)NC(=O)[C@H](Cc3ccccc3)NC(=O)[C@H](C)NC(=O)[C@H](C)NC(=O)[C@H](CC(=O)O)NC(=O)[C@H](CC(=O)O)NC1=O)NC(=O)[C@H](CC(C)C)NC(=O)[C@H](CC(=O)O)NC2=O (some centres unmarked) [I-681] 48

Requested field: Solubility. Item: CC(=O)N1CCC[C@]12CC=CCCCC1(CCCC=CCCCOC(=O)N3CC[C@@](C(=O)N[C@@H](Cc4ccccc4C(N)=O)C(=O)N[C@@H](Cc4csc5ccccc45)C(=O)N[C@@H](CCC(N)=O)C(N)=O)(C3)NC(=O)[C@H](CC(C)C)NC(=O)[C@H](Cc3ccccc3)NC(=O)[C@H](C)NC(=O)[C@H](C)NC(=O)[C@H](CC(=O)O)NC(=O)[C@H](CC(=O)O)NC1=O)NC(=O)[C@H](CC(C)(C)C)NC(=O)[C@H](CC(=O)O)NC2=O (some centres unmarked) 10

Requested field: Solubility. Item: CC(=O)N1CCC[C@]12CC=CCCCC1(CCCC=CCCCCOC(=O)N3CC[C@@](C(=O)N[C@@H](Cc4ccsc4)C(=O)N[C@@H](Cc4csc5ccccc45)C(=O)N[C@@H](Cc4c[nH]cn4)C(=O)N[C@@H](C)C(N)=O)(C3)NC(=O)[C@H](CC(N)=O)NC(=O)[C@H](Cc3ccccc3)NC(=O)[C@H](C)NC(=O)[C@H](C)NC(=O)[C@H](CC(=O)O)NC(=O)[C@H](CC(=O)O)NC1=O)NC(=O)[C@H](CC(C)(C)C)NC(=O)[C@H](CC(=O)O)NC2=O (some centres unmarked) 40

Sourced from patent US20240116985A1
